# Method: in vitro
# Particulars: human, hela cells, % viability
# Lookup of reported viability at 28.5 h, 10 µM keyed by entry
# output: bare number, implied unit %

Solved entries (count: 5):
Cc1cnn(CCNc2cc(C(C)C)nc3ccnn23)c1; 91.5
COc1ccc(C(C)C)cc1S(=O)(=O)NCCN1CCOCC1; 112
Cc1nc(=O)c(-c2ccccc2)c(C)n1-c1cccc(C(=O)O)c1; 94.3
O=C(NCCc1ccccn1)c1ccc(Cl)cc1Cl; 81.4
Cc1ncccc1COC(=O)N1CCSCC1; 104

Name the recorded viability at 28.5 h, 10 µM for Cc1ccc(S(=O)(=O)CC(=O)N2CCCC3(CCN(C(=O)Cc4c[nH]c5ccccc45)C3)C2)cc1 (centres unmarked) .
90.4

Another: COc1ccc(CN2CCN(c3ccccc3F)CC2)cc1OCc1ccccc1
115

Next molecule up: O=C(CCn1c2ccccc2c2ccccc21)NNC(=S)Nc1ccccc1
94.6

Next entry: COc1ccc(-c2cc(C(=O)Nc3nc4ccc(S(C)(=O)=O)cc4s3)c3ccccc3n2)cc1
95.9

Also need CCC(C)N1CCN(S(=O)(=O)c2ccccc2[N+](=O)[O-])CC1 (centres unmarked) [CBK264270G] , thanks.
97.2

# repeat for O=C(Cn1c(C2CCCNC2)cc2cccnc21)N1CCCC1 (centres unmarked)
94.4
